B1: TPR t1 (parent)
chain: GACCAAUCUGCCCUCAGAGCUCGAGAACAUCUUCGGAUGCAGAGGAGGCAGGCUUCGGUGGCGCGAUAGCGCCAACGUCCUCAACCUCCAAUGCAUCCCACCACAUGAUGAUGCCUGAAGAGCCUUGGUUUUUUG

variants of: B1; assay: polymerase ribozyme fitness, log enrichment relative to wild type (log ratio); higher = more active; in vitro selection for triplet polymerase activity
Class boundaries, taken from values of polymerase ribozyme fitness (log ratio), are as follows: lo: < -4; mid: ≥ -4 and < -2; hi: ≥ -2

{"columns": ["MUTATION ID", "ASSIGNED CLASS"],
 "data": [
  ["A26U U87G", "mid"],
  ["C73U C79A A90C C115A", "mid"],
  ["G52U G61C U131A", "hi"],
  ["A18C A27G A43U G44U G61A", "lo"],
  ["C72U C82G G110U", "mid"],
  ["C73U G117A G128C", "lo"],
  ["A66G C101A C104A U112A C114U", "lo"],
  ["G63C A75U U87A", "hi"],
  ["C40G G57C", "hi"],
  ["C8U U21C G122A", "hi"]
]}

Where do these numbers come from? They come from the RNAGym collection of RNA variant scans (doi:10.1073/pnas.2313332121).
